# measured-on: GST-Chk1 enzyme (Homo sapiens, UniProt O14757)
# Sequence (O14757 1-476): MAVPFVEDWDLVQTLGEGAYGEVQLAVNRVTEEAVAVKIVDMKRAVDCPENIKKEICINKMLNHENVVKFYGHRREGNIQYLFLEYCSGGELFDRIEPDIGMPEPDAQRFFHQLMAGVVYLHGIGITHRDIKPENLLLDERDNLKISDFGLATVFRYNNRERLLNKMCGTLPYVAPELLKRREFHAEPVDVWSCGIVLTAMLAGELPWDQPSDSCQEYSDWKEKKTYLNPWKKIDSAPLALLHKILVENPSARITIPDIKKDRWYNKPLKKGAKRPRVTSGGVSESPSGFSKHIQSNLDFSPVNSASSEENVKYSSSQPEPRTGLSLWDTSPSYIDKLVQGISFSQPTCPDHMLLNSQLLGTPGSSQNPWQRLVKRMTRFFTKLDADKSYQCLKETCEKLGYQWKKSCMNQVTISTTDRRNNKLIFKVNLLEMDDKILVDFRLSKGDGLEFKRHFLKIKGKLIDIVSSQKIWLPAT
# protocol: Chk1 kinase inhibition assay (33P phosphorylation of Chktide, filter plate)
# Assay type: biochemical
# condition-parameters: 0.01 mM ATP, 11 nM GST-Chk1, 40 minutes at 30° C.; read-out: Chk1 IC50

molecule: CCc1cnn2c(Nc3ccc(S(=O)(=O)N(C)C)cc3)cc(N[C@H]3CC[C@H](N)CC3)nc12 [Example 57]
result-comparator: =
IC50 [µM]: 2.61

molecule: CN(C)S(=O)(=O)c1ccc(Nc2cc(Cl)nc3c(-c4ccsc4)cnn23)cc1 [Example 156]
result-comparator: >
IC50 [µM]: 200

molecule: CC(C)c1cnn2c(Nc3ccc(S(=O)(=O)N(C)C)cc3)cc(N[C@H]3CC[C@@H](N)CC3)nc12 [Example 116]
result-comparator: =
IC50 [µM]: 2.19

molecule: CC(C)c1cnn2c(Nc3ccc(S(=O)(=O)N(C)C)cc3)cc(N3CCC[C@H]3CN)nc12 [Example 97]
result-comparator: =
IC50 [µM]: 4.75

molecule: O=S(=O)(Nc1nccs1)c1ccc(Nc2cc(Cl)nc3ccnn23)cc1 [Example 11]
result-comparator: >
IC50 [µM]: 200

molecule: CN(C)S(=O)(=O)c1ccc(Nc2cc(Cl)nc3c(C4CC4)cnn23)cc1 [Example 127]
result-comparator: >
IC50 [µM]: 200

molecule: CN(C)S(=O)(=O)c1ccc(Nc2cc(N[C@H]3CC[C@H](N)CC3)nc3c(-c4ccccc4)cnn23)cc1 [Example 163]
result-comparator: =
IC50 [µM]: 1.53

molecule: CC(C)c1cnn2c(Nc3ccc(S(=O)(=O)N(C)C)cc3)cc(N[C@H]3CC[C@H](NC(N)=O)CC3)nc12 [Example 141]
result-comparator: =
IC50 [µM]: 13

molecule: Cc1noc(C)c1-c1cc(Nc2ccc(F)cc2)n2nccc2n1 [Example 2]
result-comparator: >
IC50 [µM]: 200

molecule: CCN(CC)[C@H]1CC[C@H](Nc2cc(Nc3ccc(S(=O)(=O)N(C)C)cc3)n3ncc(C(C)C)c3n2)CC1 [Example 100]
result-comparator: =
IC50 [µM]: 29.3

molecule: CS(=O)(=O)c1ccc(Nc2cc(N[C@H]3CC[C@@H](N)CC3)nc3c(Br)cnn23)cc1 [Example 164]
result-comparator: =
IC50 [µM]: 0.25

molecule: CC(C)c1cnn2c(Nc3ccc(S(=O)(=O)N(C)C)cc3)cc(N(C)CCCN(C)C)nc12 [Example 74]
result-comparator: =
IC50 [µM]: 18.6

molecule: CC(C)c1cnn2c(Nc3ccc(S(=O)(=O)N(C)C)cc3)cc(C(=O)N3CCC(O)CC3)nc12 [Example 120]
result-comparator: >
IC50 [µM]: 200

molecule: O=S(=O)(c1ccc(Nc2ccnc3ccnn23)cc1)N1CCOCC1 [Example 16]
result-comparator: >
IC50 [µM]: 200

molecule: CCc1cnn2c(Nc3ccc(S(C)(=O)=O)cc3)cc(N[C@H]3CC[C@@H](N)CC3)nc12 [Example 173]
result-comparator: =
IC50 [µM]: 4

molecule: CCN[C@H]1CC[C@H](Nc2cc(Nc3ccc(S(=O)(=O)N(C)C)cc3)n3ncc(C(C)C)c3n2)CC1 [Example 147]
result-comparator: =
IC50 [µM]: 4
